Below is a list of entries, each paired with its recorded IC50 value.
- TARGET_OR_TEST_SYSTEM: KRAS (G12C)::SOS1 (Homo sapiens (Human), UniProt P01116, C118S/C51S/C80L/G12C)
- Sequence (P01116 other isoform, or with tags, fused parts or gaps G12C/C51S/C80L/C118S): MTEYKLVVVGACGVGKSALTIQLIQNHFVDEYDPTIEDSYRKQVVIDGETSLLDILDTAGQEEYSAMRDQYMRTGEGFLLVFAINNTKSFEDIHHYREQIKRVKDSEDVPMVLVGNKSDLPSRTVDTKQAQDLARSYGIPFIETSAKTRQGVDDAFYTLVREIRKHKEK
- ASSAY: KRAS::SOS1 AlphaScreen binding assay, KRAS G12C
Response body: numeric value in nM, unit text excluded.

[
  {
    "SUBSTANCE_SMILES": "C[C@H](Oc1cc(-n2cnc(C(=O)N(C)C)c2)nc(-c2noc3c2CCC[C@@]32CCCc3sc(N)c(C#N)c32)n1)[C@@H]1CCCN1C",
    "QUANTITATIVE_RESULT": 2
  },
  {
    "SUBSTANCE_SMILES": "C[C@H](Oc1cc(-n2cc(C(=O)N(C)C)nn2)nc(-c2noc3c2CCC[C@@]32CCCc3sc(N)c(C#N)c32)n1)[C@@H]1CCCN1C",
    "QUANTITATIVE_RESULT": 2
  },
  {
    "SUBSTANCE_SMILES": "CNC1CCN(c2cc(O[C@@H](C)[C@@H]3CCCN3C)nc(-c3noc4c3CCC[C@@]43CCCc4sc(N)c(C#N)c43)n2)CC1",
    "QUANTITATIVE_RESULT": 9
  },
  {
    "SUBSTANCE_SMILES": "C[C@H](Oc1cc(N2CCNC3(CC3)C2)nc(-c2noc3c2CCC[C@@]32CCCc3sc(N)c(C#N)c32)n1)[C@@H]1CCCN1C",
    "QUANTITATIVE_RESULT": 2
  },
  {
    "SUBSTANCE_SMILES": "C[C@H](Oc1cc(N2CCNC3(CCC3)C2)nc(-c2noc3c2CCC[C@@]32CCCc3sc(N)c(C#N)c32)n1)[C@@H]1CCCN1C",
    "QUANTITATIVE_RESULT": 3
  }
]

We now examine a further molecule.
[in] Please indicate IC50 recorded for "C[C@@H]1CN(c2nc(-c3noc4c3CCC[C@@]43CCCc4sc(N)c(C#N)c43)nc(O[C@@H](C)[C@@H]3C[C@@H](F)CN3C)c2F)CC2(CC2)N1"
[out] 2

Sourced from patent US20240174690A1
